Consider the following compounds; for each one, report its GI50.
# TEST_METHOD_NOTES: Cytotoxicity against human OVCAR5 cells
# Format: functional
# RUN_PARAMETERS: OVCAR-5
Numbers only, in µM.

Would you please look over these solved cases?
[[record]]
line_notation = "COc1cc(/C=C/c2cc(O)c3cc(CC=C(C)C)[nH]c3c2)cc2c1O[C@]1(C)CC[C@@H](O)C(C)(C)[C@H]1C2"
test_result = 25.7

[[record]]
line_notation = "COc1cc(/C=C/c2cc(O)c3c(c2)C[C@@H]2C(C)(C)[C@H](O)CC[C@@]2(C)O3)cc2c1ccn2C"
test_result = 11.2

[[record]]
line_notation = "COc1cc(/C=C/c2cc(O)c3c(c2)C[C@@H]2C(C)(C)[C@H](O)CC[C@@]2(C)O3)cc2[nH]cc(CC=C(C)C)c12"
test_result = 5.37

[[record]]
line_notation = "COc1cc(/C=C/c2cc(OC)c3c(CC=C(C)C)c[nH]c3c2)cc2c1O[C@]1(C)CC[C@@H](O)C(C)(C)[C@H]1C2"
test_result = 1.55

[[record]]
line_notation = "COc1cc(/C=C/c2cc(OC)c3cc[nH]c3c2)cc2c1O[C@]1(C)CC[C@@H](O)C(C)(C)[C@H]1C2"
test_result = 1


For every item in the list below, what is its measured GI50?
1. CC1(C)[C@H](O)CC[C@@]2(C)Oc3c(O)cc(/C=C/c4cc(O)c5cc[nH]c5c4)cc3C[C@H]12
2. COc1cc(/C=C/c2cc(OC)c3c(C/C=C(\C)CCC=C(C)C)c[nH]c3c2)cc2c1O[C@]1(C)CC[C@@H](O)C(C)(C)[C@H]1C2
3. COc1cc(/C=C/c2cc(O)c3c(CC=C(C)C)c[nH]c3c2)cc2c1O[C@]1(C)CC[C@@H](O)C(C)(C)[C@H]1C2

Response:
17.8
1.02
15.1

For every item in the list below, what is its measured GI50?
1. COc1cc(/C=C/c2cc(O)c3ccn(C)c3c2)cc2c1O[C@]1(C)CC[C@@H](O)C(C)(C)[C@H]1C2
2. COc1cc(/C=C/c2cc(OC)c3ccn(C)c3c2)cc2c1O[C@]1(C)CC[C@@H](O)C(C)(C)[C@H]1C2
3. COc1cc(/C=C/c2cc(O)c3cc[nH]c3c2)cc2c1O[C@]1(C)CC[C@@H](O)C(C)(C)[C@H]1C2
4. COc1cc(/C=C/c2cc(O)c3c(C/C=C(\C)CCC=C(C)C)c[nH]c3c2)cc2c1O[C@]1(C)CC[C@@H](O)C(C)(C)[C@H]1C2

Response:
12.3
4.57
7.41
15.1

====

# System: SK-MEL-28
# TEST_METHOD_NOTES: Cytotoxicity against human SK-MEL-28 cells
# Type: functional
# RUN_PARAMETERS: read-out: pTGI (converted)
VALUE_KIND: TGI (µM)
Give bare numbers, in µM.

For every item in the list below, what is its measured TGI?
1. COc1cc(/C=C/c2cc(O)c3ccn(C)c3c2)cc2c1O[C@]1(C)CC[C@@H](O)C(C)(C)[C@H]1C2
2. COc1cc(/C=C/c2cc(O)c3c(CC=C(C)C)c[nH]c3c2)cc2c1O[C@]1(C)CC[C@@H](O)C(C)(C)[C@H]1C2
3. COc1cc(/C=C/c2cc(OC)c3c(CC=C(C)C)c[nH]c3c2)cc2c1O[C@]1(C)CC[C@@H](O)C(C)(C)[C@H]1C2
4. COc1cc(/C=C/c2cc(O)c3cc(CC=C(C)C)[nH]c3c2)cc2c1O[C@]1(C)CC[C@@H](O)C(C)(C)[C@H]1C2

Response:
[16.2, 1.91, 2.24, 50.1]

The measured values listed here are drawn from ChEMBL document CHEMBL3232844.
